# Tested on: DeltatarO mutant
# procedure details: S. aureus survival, RN4220 and DeltatarO strains – OD600, teichoic acid synthesis inhibitors, primary screen (AID 463173)
# assay setup: S. aureus RN4220 wild type/DeltatarO growth, OD600, 18 h, stronger effect = lower value, screened at 18.75 µg/mL (by protocol)
About 4,300 (8.3%) of roughly 52,000 compounds were called active. The list comes from a sample in which actives are over-represented; it also holds close analogues and randomly drawn compounds.
Binary label based on survival with cut-off 70%: below gives TRUE, not below gives FALSE.

stdin: For this compound, is survival lower than 70%? `COc1ccc(NC(=O)c2c(NC(=O)C(F)(F)F)sc3c2CCCCC3)cc1`
stdout: TRUE

stdin: For this compound, is survival lower than 70%? COc1ccc(N(C(=O)/C=C\C(=O)Nc2ccc(Cl)cc2)C(C(=O)NCc2ccco2)c2ccc(C)cc2)cc1 (stereo not given)
stdout: FALSE

stdin: For this compound, is survival lower than 70%? CCOC(=O)c1cc2sccc2n1CC(=O)NC1CCC(C)CC1 (stereo not given)
stdout: FALSE

Next:
stdin: For this compound, is survival lower than 70%? `Cc1ccc(NC(=O)c2c(NC(=O)c3ccccc3Cl)sc3c2CCC3)cc1`
stdout: FALSE

stdin: For this compound, is survival lower than 70%? `Cc1ccc(NC(=O)CSc2ncc(S(=O)(=O)c3ccc(C(C)C)cc3)c(=O)[nH]2)cc1C`
stdout: FALSE

----------
# System: DeltatarO mutant
# procedure details: S. aureus survival, RN4220 and DeltatarO strains – OD600, teichoic acid synthesis inhibitors, primary screen (AID 463173)
# assay setup: S. aureus RN4220 wild type/DeltatarO growth, OD600, 18 h, screened at 18.75 µg/mL (by protocol)
Out of some 52,000 compounds screened, about 4,300 (8.3%) were called active. Cut-off read from the data, not from the text of the source: active = survival mostly below about 52% (no sharp cut-off); inactive = mostly above about 56%. The sample as a whole holds a higher share of actives than the screen did.
Answer with one of the outcomes given here: 1 (yes) for active, 0 (no) for inactive

Example cases with answers are listed next.
stdin: For `CNS(=O)(=O)c1cn(CC(=O)Nc2cccc(C(F)(F)F)c2)cc1S(=O)(=O)NC` , which call appears in the assay record?
stdout: 0 (no)

stdin: For CC(Nc1ccc(-c2nc(-c3ccco3)no2)cc1[N+](=O)[O-])c1ccccc1 (stereo not given) , which call appears in the assay record?
stdout: 0 (no)

Next:
stdin: For CCC(Nc1ccc(-c2nc(-c3ccccn3)no2)cc1[N+](=O)[O-])c1ccccc1 (stereo not given) , which call appears in the assay record?
stdout: 1 (yes)

----------
# System: DeltatarO mutant
# procedure details: S. aureus survival, RN4220 and DeltatarO strains – OD600, teichoic acid synthesis inhibitors, primary screen (AID 463173)
# assay setup: S. aureus RN4220 wild type/DeltatarO growth, OD600, 18 h, screened at 18.75 µg/mL (by protocol)
In all, about 52,000 compounds went through this assay and about 4,300 (8.3%) were called active. Cut-off read from the data, not from the text of the source: active = survival mostly below about 52% (no sharp cut-off); inactive = mostly above about 56%. Shown is part of a subset that was picked to be rich in actives.
Answer with one of the outcomes given here: 1.0 = active, 0.0 = inactive

stdin: For `Cc1ccc(CSc2ncc(Cl)c(C(=O)Oc3ccc(F)cc3)n2)cc1` , which call appears in the assay record?
stdout: 0.0

stdin: For `CCc1nc2c(cnn2-c2ccccc2)c(=O)n1-c1ccc(Br)cc1` , which call appears in the assay record?
stdout: 0.0

stdin: For `CCN(CC)C(=O)C1CCN(c2nnc(C)c3c(C)n(-c4ccc(Cl)cc4)nc23)CC1` , which call appears in the assay record?
stdout: 0.0

Next:
stdin: For `COc1cccc(-n2c(-c3ccccc3F)nc3c(cnn3-c3ccc(C)cc3)c2=O)c1` , which call appears in the assay record?
stdout: 0.0

stdin: For `COc1ccccc1CNC(=O)c1ccc(-c2nc(CS(=O)(=O)c3ccc(C)cc3)c(C)o2)cc1` , which call appears in the assay record?
stdout: 0.0

stdin: For `Cc1ccc(-n2c(-c3cccc(C)c3)nc3c(cnn3-c3ccccc3)c2=O)cc1` , which call appears in the assay record?
stdout: 1.0

stdin: For `COc1ccc(-n2c(-c3cccc(F)c3)nc3c(cnn3-c3ccc(C)cc3)c2=O)cc1` , which call appears in the assay record?
stdout: 0.0

stdin: For `COc1cccc(-n2c(-c3cccc(F)c3)nc3c(cnn3-c3ccc(C)cc3)c2=O)c1` , which call appears in the assay record?
stdout: 0.0

stdin: For `CN1CCN(C(=O)C(=O)Nc2c3c(nn2-c2cccc(Cl)c2)CSC3)CC1` , which call appears in the assay record?
stdout: 0.0

stdin: For `Cc1ccc(-c2nc3c(cnn3-c3ccccc3)c(=O)n2-c2cccc(Cl)c2)cc1` , which call appears in the assay record?
stdout: 1.0
